- assay.comment: soluble on expression in E. coli; label from the status in PepcDB or PDB records
property.measured: soluble on expression in E. coli

sequence.text: MMHTWFECKIRYEKVMENGMNKKVTEPYLVDALSFTEAEARIIEEITPYISGEFTVSDIKRANYSELFPSEEDAADRWFKCKLFFITLDEKSGAEKKTSTTVLVQASDLRDAVKKLDEGMKGTMADYVIASVAETAIMDVYPYEAEPDVKPEFPDAGKTE
result: not soluble
--
sequence.text: MGSDKIHHHHHHMDSFHSFNQHAFNRHAKTYHLFAHIQQQIAICLVQFLKQKHYAKVLDLGSGSGAVFNALERQNILIEEFIALDNSINMLKLHPTHSINIQKISLEHADFEEHVFCTYDLVVSSSSLQWARDLKSVLEKIALSSKEVALAIHTDFSLHEVHEFLGTPSPLRDLKTLKSLIKNAFKHFQIELENKRFALYFNRKQDCLNYLKKCGLLGGSTLSFKQKKHFFQNMAFEKLSYEVLLFSGIKRS
result: not soluble
--
sequence.text: MGSDKIHHHHHHMRRSDGRLLKSLSPFVRIIPHIMTKRNDAQNFYKQVVAVDKIDQYIKEKKDQGIRLNYLHLFIAVYVRVLAQRPQLNRFIMNNKIYTRYDIRISMAIKRLLKDDGEETTVKFLFSGLESIEEIVKIVDQTIEEGCAAGAANEVDTIAQRIMALPNSQVKLLVGTLKWMDRHNLLPKKIIEASPFHTSLFFTYLKSINLDFIYHHLYDFGTTGIFVALGKSKKLPVVEEDQVVVKKCCEIGYVLDERICDGLYYSNSFKLVKKYLANPYLLDERLEKVEEDVN
result: not soluble
